Target: human LILRB4 (human, UniProt Q8NHJ6 22-448)
Assay: cell-based or functional assay
Value kind: Fold change (Compared to isotype) (fold)
Report as a plain number; the unit fold is understood.

binder="ch27-G5-E9-B8 (antibody, V domains shown) VH: EVQLVESGGGLVQPGGSRKLSCAASGFTFSSFGMHWVRQAPEKGLEWVAYISSGSSTIYYADTVKGRFTISRDNPKNTLFLQMTSLRSEDTAMYYCARSTGTGAMDYWGQGTSVTVSS VL: DIQMTQTTSSLSASLGDSVTFSCRASQDISNYLNWYQQKPDGTVKLLISYTSRLHSGVPSRFSGSGSGTDYSLTISNLEQEDIATYFCQQGNALPWTFGGGTKLEIK" value_kind="Fold change (Compared to isotype)" reported_measurement=12.5
binder="ch27-F11-E10-G10 (antibody, V domains shown) VH: EVQLVESGGGLVQPGGSRKLSCAASGFTFSSFGMHWVRQAPEKGLEWVAYISSGSSTIYYADTVKGRFSISRDNPKNTLFLQMTSLRSEDTAMFYCARSTGTGAMDYWGQGTSVTVSS VL: DIQMTQTTSSLSASLGDRVTISCRASQDISNYLNWYQQKPDGTVKLLIYYTSRLHSGVPSRFSGSGSGTDYSLTISNLEQEDIATYFCQQGNTLPWTFGGGTKLELK" value_kind="Fold change (Compared to isotype)" reported_measurement=12.4

Input line: Param item = ch2-H8-C9-F7-E2 (antibody, V domains shown) VH: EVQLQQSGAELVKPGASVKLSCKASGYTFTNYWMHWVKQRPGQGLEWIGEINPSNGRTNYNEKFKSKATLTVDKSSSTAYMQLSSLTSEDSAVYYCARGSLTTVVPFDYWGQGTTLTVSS VL: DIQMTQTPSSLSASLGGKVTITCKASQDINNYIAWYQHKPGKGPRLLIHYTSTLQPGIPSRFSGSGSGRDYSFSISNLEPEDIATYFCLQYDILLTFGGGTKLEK ; retrieve measured Fold change (Compared to isotype).
Output line: 9.82

Input line: Try IO-202 (antibody, V domains shown) VH: EVQLLESGGGLVQPGGSLRLSCAASGIDFSNHYYMYWVRQAPGKGLEWIGSIFSGDSASTYYADSAKGRFTISRDNSKNTLYLQMNSLRAEDTAVYYCARGMSTNDWASDLWGQGTLVTVSS VL: DIQMTQSPSSLSASVGDRVTITCQASESINSIYLAWYQQKPGKAPKLLIYRASTLASGVPSRFSGSGSGTDFTLTISSLQPEDFATYYCQQSYDWGDVENTFGGGTKVEIK next.
Output line: 7.52
